B1: Connector enhancer of kinase suppressor of ras 2, residues 9 to 71; numbered along this chain, Q8WXI2 (parent)
chain: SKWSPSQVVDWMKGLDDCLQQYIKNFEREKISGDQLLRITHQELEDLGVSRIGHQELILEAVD

Variants of: B1
experiment: abundance fitness (aPCA) (normalised: wild type 0, dead -1); higher = more abundant; growth selection in yeast, the domain comes from the species named
condition_summary: Homo sapiens
readout_type: abundance fitness
Enter the number alone.

Study these solved cases before continuing.
{"changes": "D46C", "readout_type": "abundance fitness", "reading": -0.188}
{"changes": "G14M", "readout_type": "abundance fitness", "reading": -0.421}
{"changes": "L15V", "readout_type": "abundance fitness", "reading": -0.42}
{"changes": "C18R", "readout_type": "abundance fitness", "reading": -0.314}
{"changes": "E27P", "readout_type": "abundance fitness", "reading": -0.703}

Kindly review the next variant as well.
abundance fitness measured on C18P = -0.239
